- Tested on: MCF7
- ASSAY_NOTES: NCI tumour cell line growth inhibition, 48 h
The source made the active and inactive calls. Rule as the data show it: active = GI50 up to about 1.1 µM and inactive = higher.
REPORTED_METRIC: GI50

// fetch GI50 given entry O=C(OCCN=c1c2ccccc2ccc2ccccc12)c1cc([N+](=O)[O-])cc([N+](=O)[O-])c1
> 100 µM (inactive)

Provide one value: measured GI50 of C=CCOCn1ccc(NC(=O)c2ccccc2)nc1=O
> 100 µM (inactive)

Give the measured GI50 for O=C(c1ccco1)C1CC(c2ccc3ccccc3c2O)=NN1 (stereo not drawn)
46.5 µM (inactive)

----------
- Tested on: UO-31
- ASSAY_NOTES: NCI tumour cell line growth inhibition, 48 h
Active and inactive are the calls of the source. Rule as the data show it: active = GI50 up to about 1.1 µM and inactive = higher.
REPORTED_METRIC: GI50

Jot down GI50 (UO-31) of N#CCCN(CCNc1ccccc1)C(=O)Nc1ccc(NC(=O)N(CCC#N)CCNc2ccccc2)cc1 .
> 100 µM (inactive)

GET GI50 | system: UO-31 | item: CC(C)=CCC[C@@H](C)C1=C(N)C(=O)C(C)=C(O)C1=O
36 µM (inactive)

Would you please give the reported GI50 of N=c1oc2cc(O)c(O)cc2cc1C(N)=O with UO-31?
> 100 µM (inactive)

Specify GI50 for COC(OC)c1cccc2c1C(=O)CCC1(O)c3ccccc3C1C2 (stereo not given) , system UO-31.
> 100 µM (inactive)

Enter GI50 (test system UO-31) for Cc1sc2nc(-c3cccc([N+](=O)[O-])c3)c(/C=N/N=C(N)N)n2c1C
1.75 µM (inactive)

Give reported GI50 for CN(Cc1cnc2nc(N)nc(N)c2n1)c1ccc(C(=O)NC(CCC(=O)NCCC(P(=O)(O)O)P(=O)(O)O)C(=O)O)cc1 (stereo not given) (UO-31)
22 µM (inactive)

Determine reported GI50 for CC1=NN(C(=O)Cc2ccccc2)C(=O)/C1=C\C=C\c1ccccc1 ; test system: UO-31.
> 100 µM (inactive)

Please report GI50 with UO-31 for item O=c1oc2c/c(=C\c3ccc([N+](=O)[O-])cc3)c(=O)c3cccc1c3-2 .
> 100 µM (inactive)

Param request: GI50 | system UO-31 | item Cc1occc1/C(S)=N\c1ccc(Cl)c(COC(C)(C)C)c1
13.1 µM (inactive)

Return reported GI50 for target or system UO-31, item CSc1n[n+](C)cc(N)c1N .
88.9 µM (inactive)

----------
- System: SK-MEL-5
- ASSAY_NOTES: NCI tumour cell line growth inhibition, 48 h
Calls of active or inactive are those of the source. Cut-off read from the data, not from the text of the source: active = GI50 up to about 1.1 µM and inactive = higher.
Please state which outcome applies, choosing from active, inactive

Could you check what this test reported for CCOC(=O)CCC(C(=O)OCC)n1nnc2ccc(Nc3c(C)[n+]([O-])c4ccc(Cl)cc4[n+]3[O-])cc21 (stereo not given) ?
inactive

// param item: C=C1C(=O)OCC2C(C(=O)O)=CC3C(C)C(C)=CC123 (stereo not given) ; yields the recorded call
inactive

Called result for CCCCCCCCCCCCCCCCCCOP(=O)([O-])OC1CC[N+](C)(C)CC1 [PERIFOSINE]
inactive

Which outcome was assigned to CC(=O)C1(C(=O)C(=[N+]=[N-])S(=O)(=O)c2ccccc2)CC1 in this test?
inactive

Record lookup: outcome of this test for Oc1cccc2nc3cc(CN4CCOCC4)c(CN4CCOCC4)cc3nc12 ?
inactive

What is the recorded call for this molecule in the test? Cc1sc2nc(-c3cccc([N+](=O)[O-])c3)c(/C=N/N=C(N)N)n2c1C
inactive

Record lookup: outcome of this test for COc1ccc(N2C(=O)C(C#N)=C(SC)C(C#N)C2=O)cc1 (stereo not given) ?
inactive

Name the outcome recorded for COc1cc(CCNC2=CC(=O)c3ncccc3C2=O)ccc1O in the assay.
active

Per the records of this test, what outcome belongs to Cn1c(=O)c2c(ncn2CCSS(=O)(=O)O)n(C)c1=O ?
inactive

What was the test verdict on CCCCNC(=O)Nc1c(C(N)=O)c2n(c1C(=O)OCC)CCCCC2 ?
inactive

Dear all, I need the recorded test outcome for C#C[C@H]1CCCCCC1O (stereo not given in full) , thank you.
inactive

Hi, do you know how CCOc1ccc(NC(=O)/C(=C\c2ccc(C)cc2)C(C)=O)cc1 came out in this test?
inactive

Called result for O=C(O)CP(=S)(S)c1ccccc1 (stereo not given)
inactive

For this molecule, state the assay outcome: Cc1ccc(/N=N/c2c(O)ccc3cc(S(=O)(=O)O)ccc23)cc1
inactive

How did this test come out for CC(C)=CCC[C@@H](C)C1=C(N)C(=O)C(C)=C(O)C1=O ?
inactive

Per the assay record, what outcome was assigned to CC1CN=C(Nc2ccc(F)c(Cl)c2)S1 (stereo not given) ?
inactive

# outcome recorded in this test, key = Nc1ccc(/N=N/c2ccc(/C=C/c3ccc(/N=N/c4ccc(N)c5ccc(S(=O)(=O)O)cc45)cc3S(=O)(=O)O)c(S(=O)(=O)O)c2)c2cc(S(=O)(=O)O)ccc12
inactive

Dear all, I need the recorded test outcome for O=C(Nc1ccc2c(c1)oc(=O)c1ccccc12)C(Cl)Cl , thank you.
inactive

Look up the recorded call for CCC(C)NC1=NCC(C)S1 (stereo not given) in this test.
inactive

Look up the recorded call for C[C@]12C[C@@H](OC(=O)[C@]1(C)O)[C@@H]([C@]1(O)CC[C@H]3[C@@H]4C[C@H]5O[C@]56C[C@H]5O[C@H]5C(=O)[C@]6(C)[C@H]4CC[C@@]31C)C2 in this test.
inactive

----------
- Test system: NCI-H460
- ASSAY_NOTES: NCI tumour cell line growth inhibition, 48 h
The source made the active and inactive calls. Rule as the data show it: active = GI50 up to about 1.1 µM and inactive = higher.
REPORTED_METRIC: GI50

Write down the reported GI50 (system: NCI-H460) of CN(CCCNC(=O)c1nn(-c2ccccc2)c2c1ccc1ccccc12)CCCNC(=O)c1nn(-c2ccccc2)c2c1ccc1ccccc12
1.76 µM (inactive)

Recall the reported GI50 of CCOC(=O)C1=C(C)N(NC(=O)c2ccccc2)C2(O)CCCC12C(=O)OCC (centres undefined) when tested on NCI-H460.
> 100 µM (inactive)

State recorded GI50 with NCI-H460, entry CCNC(=O)Nc1cccc(NC(=O)NCC)n1 , no comment.
> 100 µM (inactive)

Retrieve GI50 on NCI-H460; query OC1CN2CCS[C@H]2C(O)C1O (some centres undefined)
> 100 µM (inactive)

----------
Kindly state GI50 for each of the entries shown.
- Test system: SF-295
- ASSAY_NOTES: NCI tumour cell line growth inhibition, 48 h
Calls of active or inactive are those of the source. Cut-off read from the data, not from the text of the source: active = GI50 up to about 1.1 µM and inactive = higher.

Given CC(C)C(=O)OCC1OC(n2c(Br)nc3c(=O)[nH]c(N)nc32)C(OC(=O)C(C)C)C1OC(=O)C(C)C (stereo not given) , respond with its GI50.
21.2 µM (inactive)

Tell us which GI50 value is on record for CCOC(=O)NN1C(=O)C(=P(c2ccccc2)(c2ccccc2)c2ccccc2)C(C(=O)OC)=C1C
> 100 µM (inactive)

Quick one: give measured GI50 for CC(=O)C1(c2ccccc2)CCCN(C)CC1 (stereo not given)
> 100 µM (inactive)

Name the recorded GI50 of the compound listed here: O=C1c2ccccc2-c2nc(-c3ccccc3)cc3c2c1nc1ccccc13
12 µM (inactive)

Supply measured GI50 of Cc1noc2nnn(-c3ccc(Cl)cc3)c(=O)c12 in your reply.
12.3 µM (inactive)

Output GI50 of CCOC(=O)N1CCc2cc(OC)c(OC)cc2/C1=C\c1ccc(OC)c(OC)c1
22.9 µM (inactive)

Look up and report measured GI50 for this entry: CCCCCCCCCCOC(=O)c1cc[n+](C)cc1
16.7 µM (inactive)

Name the recorded GI50 of the compound listed here: COc1ccc(/C=N/C23CC4CC(CC(C4)C2)C3)cc1
> 100 µM (inactive)

Output GI50 of NNC1=Nc2ccc(Cl)cc2C(=S)N2CSCC12 (stereo not given)
> 100 µM (inactive)

Tell me GI50 reported for COC(=O)[C@]12CC3C=CC1N(C3)C(CBr)c1c2n(S(=O)(=O)c2ccccc2)c2ccccc12 (stereo not given in full)
42.2 µM (inactive)

----------
- Test system: IGROV-1
- ASSAY_NOTES: NCI tumour cell line growth inhibition, 48 h
Calls of active or inactive are those of the source. No stated cut-off is given here; in the data, active = GI50 up to about 1.1 µM and inactive = higher.
What GI50 was measured for each of the following?

Provide measured GI50 value, entry: O=c1c2c(F)c(F)c(F)c(F)c2sc2nccn12
17.4 µM (inactive)

Please give the documented GI50 of CC(=O)O[C@H]1[C@@H](N2CCOCC2)C[C@H]2[C@@H]3CC=C4C[C@@H](N5CCCC5)CC[C@]4(C)[C@H]3CC[C@@]21C
> 100 µM (inactive)

Identify measured GI50 associated with O=C(Nc1ccc2c(c1)oc(=O)c1ccccc12)C(Cl)Cl
> 100 µM (inactive)

Return the recorded GI50 value; entry: C#C[C@H]1CCCCCC1O (stereo partly specified)
> 100 µM (inactive)

Please give the documented GI50 of CCCCCCCCCCCCCCCC(=O)OCC1OC(OC)C2NP(=O)(N(CCCl)CCCl)OC1C2O (stereo unspecified)
19 µM (inactive)

Give the measured GI50 for CCOC(=O)C1=C(C)N(NC(=O)c2ccccc2)C2(O)CCCC12C(=O)OCC (stereo unspecified)
> 100 µM (inactive)

Hello, please tell me recorded GI50 for this one: CCSc1c2cc(OC)ccc2nc2ccc(OC)cc12
18.3 µM (inactive)

For the compound c1ccc(N2N=C(c3ccco3)CC2c2ccco2)cc1 (stereo unspecified) , report GI50.
> 100 µM (inactive)

For the compound O=C1C=CC(O)(C#CCO)C=C1 , report GI50.
13 µM (inactive)

Respond only with GI50 recorded for O=C(Nc1ccccc1)N(C1=NCC(CI)S1)c1ccc(F)cc1F (stereo unspecified)
20.9 µM (inactive)

Look up GI50 of O=C1c2ccccc2-c2nc(-c3ccccc3)cc3c2c1nc1ccccc13 and report it.
4.12 µM (inactive)
